experiment: photoluminescence quantum yield (fraction); solvent given as SMILES; settings: in ClCCl
Assay Endpoint: photoluminescence quantum yield

>  <Compound>
CN(C)c1ccc(/C=C/c2ncccn2)cc1

>  <Quantitative Result>
0.01

$$$$
>  <Compound>
COc1ccc(C2=CC(c3ccc4cc(N(C)C)ccc4c3)=[O+][B-](F)(F)O2)cc1

>  <Quantitative Result>
0.62

$$$$
>  <Compound>
CCc1cccc(CC)c1-c1c2ccccc2c(C#Cc2ccccc2)c2cc3ccccc3cc12

>  <Quantitative Result>
0.57

$$$$
>  <Compound>
CN(C)c1ccc(/C=C/c2nc3cc(Br)ccc3nc2-c2ccccc2)cc1

>  <Quantitative Result>
0.17

$$$$
>  <Compound>
CN(C)c1ccc(/C=C/c2ccncn2)cc1

>  <Quantitative Result>
0.15

$$$$
>  <Compound>
CN(C)c1ccc(C#CC2=C3CCc4ccccc4C3=[O+][B-](F)(F)O2)cc1

>  <Quantitative Result>
0

$$$$
>  <Compound>
CN(C)c1ccc(-c2nc(-c3ccc(N(C)C)cc3)c3ccccc3n2)cc1

>  <Quantitative Result>
0.8

$$$$
>  <Compound>
CN(C)c1ccc(C2=CC3=C(c4ccc(C=O)cc4)[C@H]4c5ccccc5[C@]3(S2)c2ccccc24)cc1

>  <Quantitative Result>
0.46

$$$$
>  <Compound>
Brc1ccc(-c2nc(-c3ccc(C#Cc4ccc(-n5c6ccccc6c6ccccc65)cc4)cc3)nc(-c3ccc(C#Cc4ccc(-n5c6ccccc6c6ccccc65)cc4)cc3)n2)cc1

>  <Quantitative Result>
0.65

$$$$
>  <Compound>
CCN(CC)c1ccc2c(c1)oc(=O)c1c(C)nc3c(c(-c4ccccc4)nn3C)c12

>  <Quantitative Result>
0.673

$$$$
>  <Compound>
C(#Cc1ccccc1)c1ccccc1

>  <Quantitative Result>
0.003

$$$$
>  <Compound>
COc1ccc2cc(C3=[N+]4C(=Nc5c(-c6ccc7ccccc7c6)c(Br)c(-c6ccc7cc(OC)ccc7c6)n5[B-]4(F)F)C(c4ccc5ccccc5c4)=C3Br)ccc2c1

>  <Quantitative Result>
0

$$$$
>  <Compound>
CN(C)/C=N\c1ccc2c3c(cccc13)C(=O)c1ccccc1-2

>  <Quantitative Result>
0.55

$$$$
>  <Compound>
O=P1(c2ccccc2)c2cccc3c4c5ccccc5c5ccccc5c4c4ccc1n4c23 (stereo not given)

>  <Quantitative Result>
0.97

$$$$
>  <Compound>
c1ccc(N(c2ccccc2)c2ccc(-c3ccc4c(c3)C3(c5cc(-c6ccc(N(c7ccccc7)c7ccccc7)cc6)ccc5-4)c4ccccc4N(c4ccccc4)c4ccccc43)cc2)cc1

>  <Quantitative Result>
0.82

$$$$

----------
assay: photoluminescence quantum yield (fraction); solvent given as SMILES; settings: in ClCCl
Below is a list of entries, each paired with its recorded photoluminescence quantum yield value.
Assay Endpoint: photoluminescence quantum yield

>  <Compound>
COCCOCCOCCOCC(COCCOCCOCCOC)Oc1cc(/C=C/c2ccc(/C=C(\C#N)c3ccc(C(F)(F)F)cc3)cc2)c(OC(COCCOCCOCCOC)COCCOCCOCCOC)cc1/C=C/c1ccc(/C=C(\C#N)c2ccc(C(F)(F)F)cc2)cc1

>  <Result>
0.55

$$$$
>  <Compound>
CN(C)c1ccc(C2=Nc3scc(-c4ccc([N+](=O)[O-])cc4)[n+]3[B-](F)(F)O2)cc1

>  <Result>
0.001

$$$$
>  <Compound>
O=[N+]([O-])c1ccc(C#Cc2ccc3ccccc3c2)cc1

>  <Result>
0.006

$$$$
>  <Compound>
CCOC(=O)CC[N+]1=c2cc3c(cc2CCC1)=Cc1c(c2cc4c5c(c2oc1=O)CCCN5CCC4)O3

>  <Result>
0.125

$$$$
>  <Compound>
CCN(CC)c1ccc2cc(/C(Cl)=C/C=C/C(=C(C#N)C#N)c3ccc(N(c4ccccc4)c4ccccc4)cc3)c(=O)oc2c1

>  <Result>
0.018

$$$$
>  <Compound>
CN(C)c1ccc(C#Cc2ccc3ccc4ccc(C#Cc5ccc(N(C)C)cc5)c5ccc2c3c45)cc1

>  <Result>
0.534

$$$$
>  <Compound>
CCCCC(CC)COc1ccc2nc(-c3ccc(-c4ccccc4)s3)sc2c1 (centres undefined)

>  <Result>
0.58

$$$$
>  <Compound>
COc1ccc(/C2=C3N=C(C(c4ccccc4)=C/3c3ccccc3)/C(c3ccc(OC)cc3)=c3\[nH]/c(c(-c4ccccc4)c3-c3ccccc3)=C(/c3ccc(OC)cc3)C3=N/C(=C(/c4ccc(OC)cc4)c4[nH]c2c(-c2ccccc2)c4-c2ccccc2)C(c2ccccc2)=C3c2ccccc2)cc1

>  <Result>
0.006

$$$$
>  <Compound>
CCN(CC)c1ccc2c(-c3ccccc3C(=O)O)c3c([o+]c2c1)/C(=C/c1nc(C)n2ccccc12)CCC3

>  <Result>
0.3

$$$$
>  <Compound>
O=C1c2ccccc2-c2c(-c3cc(Br)ccc3O)[nH]c(=O)n21

>  <Result>
0.61

$$$$
>  <Compound>
CC1=[N+]2C(=C(c3ccc(-c4c5ccccc5c(-c5ccccc5)c5ccccc45)cc3)c3ccc(C)n3[B-]2(F)F)C=C1

>  <Result>
0.027

$$$$
>  <Compound>
CCCCCCN(CCCCCC)c1ccc(C#Cc2ccc(C(F)(F)F)cc2)cc1

>  <Result>
0.24

$$$$
>  <Compound>
CCn1c2ccccc2c2cc(C#Cc3cc(C#Cc4ccc5c(c4)c4ccccc4n5CC)ncn3)ccc21

>  <Result>
0.72

$$$$
>  <Compound>
CCOC(=O)/N=c1/oc2c(OC)cccc2cc1C#N

>  <Result>
0.0034

$$$$

----------
experiment: photoluminescence quantum yield (fraction); solvent given as SMILES; conditions: in CN(C)C=O
// assign true (1) if photoluminescence quantum yield falls strictly below 0.3, else false (0) (ties count as false (0))

>  <Molecule>
NS(=O)(=O)c1ccc(N2N=C(c3ccc(O)cc3)CC2c2ccc(Cl)cc2)cc1 (stereo unspecified)

>  <Label Class>
false (0)

$$$$
>  <Molecule>
O=C1c2ccccc2-c2ccc(N3CCN(c4ccccc4)CC3)c3cccc1c23

>  <Label Class>
true (1)

$$$$
>  <Molecule>
CCCCCCCCCCCCN1C(=O)c2ccc3c4ccc5c6c(ccc(c7ccc(c2c37)C1=O)c64)C(=O)N(CCCCCCCCCCCC)C5=O

>  <Label Class>
false (0)

$$$$
>  <Molecule>
CC(=O)c1ccc2ccc3c(NCCC(=O)NCCCCCCc4nc5c(=O)[nH]c(N)nc5n4[C@H]4C[C@H](O)[C@@H](CO)O4)ccc4ccc1c2c43

>  <Label Class>
false (0)

$$$$
>  <Molecule>
CCOC(=O)C1=C(C)NC2=C(C(=O)c3ccccc32)C1c1ccc(N(C)C)cc1 (stereo unspecified)

>  <Label Class>
false (0)

$$$$
>  <Molecule>
CCN(CC)c1ccc2cc(/C(Cl)=C/C=C/C(=C(C#N)C#N)c3ccc(N(c4ccccc4)c4ccccc4)cc3)c(=O)oc2c1

>  <Label Class>
true (1)

$$$$
>  <Molecule>
CCCCN1C(=O)C(=C/C=C/C=C2N(CCCC)c3ccccc3N2CCCC)C(=O)N(CCCC)C1=S

>  <Label Class>
true (1)

$$$$
>  <Molecule>
COCCOc1ccc(OCCOC)c(C=O)c1

>  <Label Class>
true (1)

$$$$
>  <Molecule>
COc1ccc(OC)c(C=O)c1

>  <Label Class>
true (1)

$$$$
>  <Molecule>
CC(=O)NC(Cc1ccc(O)cc1)C(=O)O[Si]1(OC(=O)C(Cc2ccc(O)cc2)NC(C)=O)n2c3c4ccccc4c2/N=C2N=C(/N=c4/c5ccccc5/c(n41)=N/C1=NC(=N\3)/c3ccccc31)c1ccccc1\2 (stereo unspecified)

>  <Label Class>
true (1)

$$$$
>  <Molecule>
CN(C)/C=N\c1ccc2c3c(cccc13)C(=O)c1ccccc1-2

>  <Label Class>
true (1)

$$$$

----------
test: photoluminescence quantum yield (fraction); solvent given as SMILES; settings: in Cc1ccccc1
Below is a list of entries, each paired with its recorded photoluminescence quantum yield value.

>  <Compound>
N#Cc1ccc(/C=C/c2ccc3ccc4cccc5ccc2c3c45)cc1

>  <photoluminescence quantum yield>
0.79

$$$$
>  <Compound>
CC(C)(C)c1ccc2c(c1)c1cc(C(C)(C)C)ccc1n2-c1ccc(C#Cc2ccc(C=C(C#N)C#N)cc2)cc1

>  <photoluminescence quantum yield>
0.48

$$$$
>  <Compound>
Cc1csc2[n+]1[B-](F)(F)n1c(c3cccc4cccc1c43)=N2

>  <photoluminescence quantum yield>
0.99

$$$$
>  <Compound>
CCCCN1C(=O)C(=C/C=C/C=C/C=C2N(CCCC)c3ccccc3N2CCCC)C(=O)N(CCCC)C1=S

>  <photoluminescence quantum yield>
0.73

$$$$
>  <Compound>
CCCCCCC(CCCCCC)n1c(=O)c2c3ccc4cccc5c6cccc7ccc(c2c1=O)c(c76)c3c45

>  <photoluminescence quantum yield>
0.42

$$$$
>  <Compound>
F[B-]1(F)n2cccc2C(c2c3ccccc3cc3ccccc23)=C2C=CC=[N+]21

>  <photoluminescence quantum yield>
0.008

$$$$
>  <Compound>
CCCCC1=Cc2c3ccc4cccc5ccc(c6cc(-c7ccccc7)n(c26)P1(=O)c1ccccc1)c3c45 (stereo not drawn)

>  <photoluminescence quantum yield>
0.6

$$$$
>  <Compound>
c1ccc(N(c2ccccc2)c2cc3c4c(c2)N(c2ccccc2)c2cc5c(cc2B4c2ccccc2N3c2ccccc2)B2c3ccccc3N(c3ccccc3)c3cc(N(c4ccccc4)c4ccccc4)cc(c32)N5c2ccccc2)cc1

>  <photoluminescence quantum yield>
0.74

$$$$
>  <Compound>
c1ccc(-c2cc(-c3nnc(-c4ccc(N5c6ccccc6Oc6ccccc65)cc4)o3)c(-c3ccccc3)c(-c3ccccc3)c2-c2ccccc2)cc1

>  <photoluminescence quantum yield>
0.264

$$$$
>  <Compound>
c1ccc2c(c1)c1ccccc1n2-c1ccc2cc(-c3ccc(-c4ccc(-c5cc6ccc(-n7c8ccccc8c8ccccc87)cc6o5)cc4)cc3)oc2c1

>  <photoluminescence quantum yield>
0.96

$$$$
>  <Compound>
N#Cc1cc2ccc(cc2)c2cccc3cccc(c4ccc(cc4)cc(C#N)c4ccc(cc4)c4cccc5cccc(c6ccc1cc6)c54)c32

>  <photoluminescence quantum yield>
0.55

$$$$
>  <Compound>
O=C1c2ccccc2-c2ccc(N3CCN(c4ccccc4)CC3)c3cccc1c23

>  <photoluminescence quantum yield>
0.431

$$$$
>  <Compound>
N#CC1=c2c3cccc4cccc(c43)n2[B-](F)(F)[n+]2ccccc21

>  <photoluminescence quantum yield>
0.75

$$$$
